- Tested on: Salmonella enteritidis
- METHOD: Compound was tested in vitro for antibacterial activity against Salmonella enteritidis E497 strain.
- TEST_PARAMETERS: Salmonella enterica
QUANTITY: MIC (µg/mL)
Please give a number only; it is taken to be in µg/mL.

MIC reading for C[C@H](N)C(=O)N[C@@H](C)C(=O)N[C@@H](CCCCC(=O)O)C(=O)O : 2

The compound C[C@H](N)C(=O)N[C@@H](CCCCC(=O)O)C(=O)O showed MIC equal to 16

Short answer for CC(N)C(=O)NCCP(=O)(O)O (configuration not stated) : MIC was 50

MIC recorded for this compound, C[C@H](NC(=O)[C@@H](N)CCCCC(=O)O)C(=O)O , is 8

---

- System: Salmonella enteritidis
- METHOD: Compound was tested in vitro for antibacterial activity against Salmonella enteritidis E497 strain.
- TEST_PARAMETERS: Salmonella enterica
In this section, each of the compounds is paired with its reported MIC.

In the examples that follow, each entry is paired with its recorded MIC.
N[C@@H](CCCCC(=O)O)C(=O)N1CCC[C@H]1C(=O)O
> 1000 µg/mL
NC(CCCCC(=O)O)C(=O)O (stereo not drawn)
> 1000 µg/mL

Here's the next entry for you.
Data point: O=C(O)CCCC[C@H](NC(=O)[C@@H]1CCCN1)C(=O)O ; MIC = > 1000 µg/mL
